# experimental-target: PD-L1 His protein / PD-1 Fc protein (Homo sapiens, UniProt Q9NZQ7)
# Sequence (Q9NZQ7 19-238 limits assumed): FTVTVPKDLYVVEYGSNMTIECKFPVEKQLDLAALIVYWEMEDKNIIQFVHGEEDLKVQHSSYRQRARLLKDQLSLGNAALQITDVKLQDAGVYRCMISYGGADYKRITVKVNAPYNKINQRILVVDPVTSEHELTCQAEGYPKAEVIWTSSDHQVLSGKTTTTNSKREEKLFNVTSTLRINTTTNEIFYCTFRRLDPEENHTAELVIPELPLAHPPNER
# assay-protocol: HTRF Assay (PD-1/PD-L1 interaction)
# settings: PD-L1 His 6 nM, PD-1 Fc 6 nM
pIC50: −log10 of the molar value.
reported-endpoint: pIC50

molecule="COc1nc(-c2cccc(-c3cccc(-c4ccc5c(n4)OCCN(CCO)C5)c3Cl)c2Cl)ccc1CNC[C@@H]1CCC(=O)N1 [Example 267]" reported_endpoint=pIC50 meas_value=9.70
molecule="COc1nc(-c2cccc(-c3cccc(-c4ccn5c(=O)c(CNC[C@@H]6CCC(=O)N6)cnc5c4)c3Cl)c2Cl)ccc1CNC[C@@H](C)O [Example 198]" reported_endpoint=pIC50 meas_value=9.52
molecule="COc1nc(-c2cccc(-c3cccc(-c4ccc5nc(CN6CC(C)(O)C6)cc(=O)n5c4)c3Cl)c2Cl)ccc1CNC[C@@H]1CCC(=O)N1 [Example 222]" reported_endpoint=pIC50 meas_value=9.70
molecule="COc1nc(-c2cccc(-c3cccc(-c4ccn5c(=O)c(CNCCc6c[nH]cn6)cnc5c4)c3Cl)c2Cl)ccc1CNC[C@@H]1CCC(=O)N1 [Example 215]" reported_endpoint=pIC50 meas_value=8.10
molecule="COc1nc(-c2cccc(-c3cccc(-c4nc5c(c(OC)n4)CN(C[C@@H]4CCC(=O)N4)CC5)c3Cl)c2Cl)ccc1CNC[C@@H]1CCC(=O)N1 [Example 471]" reported_endpoint=pIC50 meas_value=10.00
molecule="COc1nc(-c2cccc(-c3cccc(-c4ccn5c(=O)c(CN[C@H]6C[C@@](C)(O)C6)c(C)nc5c4)c3Cl)c2Cl)ccc1CN[C@H]1C[C@@](C)(O)C1 [Example 230]" reported_endpoint=pIC50 meas_value=7.01
molecule="COc1nc(-c2cccc(-c3cccc(-c4ccc5c(n4)CCC[C@H]5NC[C@@H]4CCC(=O)N4)c3Cl)c2Cl)ccc1CNC[C@@H]1CCC(=O)N1 [Example 456]" reported_endpoint=pIC50 meas_value=9.70
molecule="COc1nc(-c2cccc(-c3cccc(-c4ccc5oc(CNC[C@@H]6CCC(=O)N6)nc5c4)c3Cl)c2Cl)ccc1CNC[C@@H]1CCC(=O)N1 [Example 247]" reported_endpoint=pIC50 meas_value=6.35
molecule="COc1nc(-c2cccc(-c3cccc(-c4ccn5c(=O)c(CN[C@@H](CO)C(=O)O)cnc5c4)c3Cl)c2Cl)ccc1CNC[C@@H]1CCC(=O)N1 [Example 151]" reported_endpoint=pIC50 meas_value=9.52
molecule="COc1nc(-c2cccc(-c3cccc(-c4ccn5c(=O)c(CNC[C@@H]6CCC(=O)N6)cnc5c4)c3Cl)c2Cl)ccc1CN1CC2(C(=O)O)CCC1CC2 [Example 122]" reported_endpoint=pIC50 meas_value=9.10
molecule="COc1nc(-c2cccc(-c3cccc(-c4ccn5c(=O)c(CNC[C@@H]6CCC(=O)N6)cnc5c4)c3Cl)c2Cl)ccc1C1=NCC(O)CN1 (stereo partly drawn) [Example 178]" reported_endpoint=pIC50 meas_value=8.46
molecule="COc1nc(-c2cccc(-c3cccc(-c4ccn5c(=O)c(CNC[C@@H]6C[C@@H]6CO)cnc5c4)c3Cl)c2Cl)ccc1CNC[C@@H]1CCC(=O)N1 [Example 409]" reported_endpoint=pIC50 meas_value=9.70

----------
Recorded pIC50 for the following compounds
# experimental-target: PD-L1 His protein / PD-1 Fc protein (Homo sapiens, UniProt Q9NZQ7)
# assay-protocol: HTRF Assay (PD-1/PD-L1 interaction)
# settings: PD-L1 His 6 nM, PD-1 Fc 6 nM
pIC50: −log10 of the molar value.
reported-endpoint: pIC50

molecule=COc1nc(-c2cccc(-c3cccc(-c4cnc5c(CNC[C@@H]6CCC(=O)N6)c(C)nn5c4)c3Cl)c2Cl)ccc1CNC[C@@H]1CCC(=O)N1 meas_value=9.22
molecule=COc1nc(-c2cccc(-c3cccc(-c4ccn5c(=O)c(CN6CC[C@H](C(=O)O)C6)cnc5c4)c3Cl)c2Cl)cnc1CNC[C@@H]1CCC(=O)N1 meas_value=9.52
molecule=COc1nc(-c2cccc(-c3cccc(-c4cc5c(=O)n(C)c(CN[C@H]6CC[C@H](O)CC6)nn5c4)c3Cl)c2Cl)ccc1CNC[C@@H]1CCC(=O)N1 meas_value=9.40
molecule=COc1nc(-c2cccc(-c3cccc(-c4ccc5nc(CNC[C@@H]6CCC(=O)N6)ncc5c4)c3Cl)c2Cl)ccc1CNC[C@@H]1CCC(=O)N1 meas_value=8.39
molecule=COc1nc(-c2cccc(-c3cccc(-c4cn5cc(CNC[C@@H]6CCC(=O)N6)ccc5n4)c3Cl)c2Cl)ccc1CNC[C@@H]1CCC(=O)N1 meas_value=8.32
molecule=COc1nc(-c2cccc(-c3cccc(-c4ccn5c(=O)c(CN6CCC[C@@]6(C)C(=O)O)cnc5c4)c3Cl)c2Cl)ccc1CNCCO meas_value=9.70
molecule=O=C1CC[C@@H](CNCc2ccc(-c3cccc(-c4cccc(-c5ccn6c(=O)c(CNC[C@@H]7CCC(=O)N7)cnc6c5)c4Cl)c3Cl)nc2OC2CC2)N1 meas_value=8.85
molecule=COc1nc(-c2cccc(-c3cccc(-c4ccn5c(=O)c(CN[C@H]6C[C@](C)(O)C6)cnc5c4)c3Cl)c2Cl)cc(Cl)c1CNC[C@@H]1CCC(=O)N1 meas_value=7.21
molecule=COc1nc(-c2cccc(-c3cccc(-c4ccc5c(n4)nc(CN[C@H]4C[C@H](O)C4)n5C)c3Cl)c2Cl)ccc1CN[C@H]1C[C@H](O)C1 meas_value=8.72
molecule=COc1nc(-c2cccc(-c3cccc(-c4ccn5c(=O)c(CN[C@@H](C)C(N)=O)cnc5c4)c3Cl)c2Cl)ccc1CNC[C@@H]1CCC(=O)N1 meas_value=10.00

----------
# experimental-target: PD-L1 His protein / PD-1 Fc protein (Homo sapiens, UniProt Q9NZQ7)
# assay-protocol: HTRF Assay (PD-1/PD-L1 interaction)
# settings: PD-L1 His 6 nM, PD-1 Fc 6 nM
Recorded IC50 for the following molecules
reported-endpoint: IC50 (nM)

molecule="COc1cc2c(cc1CNC[C@@H]1CCC(=O)N1)CCC2=Cc1cccc(-c2cccc(-c3ccc(CNC[C@@H]4CCC(=O)N4)c(OC)n3)c2Cl)c1Cl [Example 228]" readout_units=nM meas_value=3200
molecule="COc1nc(-c2cccc(-c3cccc(-c4ccc(CN5CCCC[C@H]5C(=O)O)c(OC)n4)c3Cl)c2Cl)ccc1CNC[C@@H]1CCC(=O)N1 [Example 494]" readout_units=nM meas_value=0.1
molecule="COc1nc(-c2cccc(-c3cccc(-c4cc5c(=O)n(C)c(CNC[C@H]6CNC(=O)C6)nn5c4)c3Cl)c2Cl)ccc1CNC[C@@H]1CCC(=O)N1 [Example 476]" readout_units=nM meas_value=33
molecule="COC(=O)CCCNCc1cnc2cc(-c3cccc(-c4cccc(-c5ccc(CNC[C@@H]6CCC(=O)N6)c(OC)n5)c4Cl)c3Cl)ccn2c1=O [Example 137]" readout_units=nM meas_value=1.7
molecule="CNCCN(C)Cc1cnc2cc(-c3cccc(-c4cccc(-c5ccc(CNC[C@@H]6CCC(=O)N6)c(OC)n5)c4Cl)c3Cl)ccn2c1=O [Example 278]" readout_units=nM meas_value=0.1

----------
# experimental-target: PD-L1 His protein / PD-1 Fc protein (Homo sapiens)
# assay-protocol: HTRF Assay (PD-1/PD-L1 interaction)
# settings: PD-L1 His 6 nM, PD-1 Fc 6 nM
reported-endpoint: IC50 (nM)

compound="COC(=O)[C@H]1CCN(Cc2c(C)nc3cc(-c4cccc(-c5cccc(-c6ccc(CNC[C@@H]7CCC(=O)N7)c(OC)n6)c5Cl)c4Cl)ccn3c2=O)C1 [Example 265]" reported_endpoint=IC50 readout_units=nM meas_value=0.7
compound="COc1nc(-c2cccc(-c3cccc(-c4ccc5nc(C(=O)NC[C@H](C)N)cn5n4)c3Cl)c2Cl)ccc1CNC[C@@H]1CCC(=O)N1 [Example 439]" reported_endpoint=IC50 readout_units=nM meas_value=20
compound="COc1nc(-c2cccc(-c3cccc(-c4ccc5c(c4Cl)CN(C[C@@H]4CCC(=O)N4)CC5)c3Cl)c2Cl)ccc1CNC[C@@H]1CCC(=O)N1 [Example 427]" reported_endpoint=IC50 readout_units=nM meas_value=5.2
compound="Cc1c(-c2ccn3c(=O)c(CNCCO)cnc3c2)cccc1-c1cccc(COc2cc(OCc3cncc(C#N)c3)c(CNCCO)cc2Cl)c1Cl [Example 14]" reported_endpoint=IC50 readout_units=nM meas_value=0.4
compound="COc1nc(-c2cccc(-c3cccc(-c4ccc5c(c4)OCCC5NC[C@@H]4CCC(=O)N4)c3Cl)c2Cl)ccc1CNC[C@@H]1CCC(=O)N1 (mixture of isomers) [Example 326]" reported_endpoint=IC50 readout_units=nM meas_value=24
compound="COc1nc(CC2CCc3c(-c4cccc(-c5ccn6c(=O)c(CNC[C@@H]7CCC(=O)N7)cnc6c5)c4Cl)cccc32)c(Cl)cc1CNC[C@@H]1CCC(=O)N1 (mixture of isomers) [Example 213]" reported_endpoint=IC50 readout_units=nM meas_value=3700
compound="COc1nc(-c2cccc(-c3cccc(-c4ccn5c(=O)c(CNC[C@@H]6CCC(=O)N6)c(OC)nc5c4)c3Cl)c2Cl)ccc1CNC[C@@H]1CCC(=O)N1 [Example 201]" reported_endpoint=IC50 readout_units=nM meas_value=100
compound="COc1nc(-c2cccc(-c3cccc(-c4ccn5c(=O)c(CNCC(F)F)cnc5c4)c3Cl)c2Cl)ccc1CNC[C@@H]1CCC(=O)N1 [Example 297]" reported_endpoint=IC50 readout_units=nM meas_value=320
